assayedTarget: UniProtKB Q14524
Sequence (Q14524 whole entry): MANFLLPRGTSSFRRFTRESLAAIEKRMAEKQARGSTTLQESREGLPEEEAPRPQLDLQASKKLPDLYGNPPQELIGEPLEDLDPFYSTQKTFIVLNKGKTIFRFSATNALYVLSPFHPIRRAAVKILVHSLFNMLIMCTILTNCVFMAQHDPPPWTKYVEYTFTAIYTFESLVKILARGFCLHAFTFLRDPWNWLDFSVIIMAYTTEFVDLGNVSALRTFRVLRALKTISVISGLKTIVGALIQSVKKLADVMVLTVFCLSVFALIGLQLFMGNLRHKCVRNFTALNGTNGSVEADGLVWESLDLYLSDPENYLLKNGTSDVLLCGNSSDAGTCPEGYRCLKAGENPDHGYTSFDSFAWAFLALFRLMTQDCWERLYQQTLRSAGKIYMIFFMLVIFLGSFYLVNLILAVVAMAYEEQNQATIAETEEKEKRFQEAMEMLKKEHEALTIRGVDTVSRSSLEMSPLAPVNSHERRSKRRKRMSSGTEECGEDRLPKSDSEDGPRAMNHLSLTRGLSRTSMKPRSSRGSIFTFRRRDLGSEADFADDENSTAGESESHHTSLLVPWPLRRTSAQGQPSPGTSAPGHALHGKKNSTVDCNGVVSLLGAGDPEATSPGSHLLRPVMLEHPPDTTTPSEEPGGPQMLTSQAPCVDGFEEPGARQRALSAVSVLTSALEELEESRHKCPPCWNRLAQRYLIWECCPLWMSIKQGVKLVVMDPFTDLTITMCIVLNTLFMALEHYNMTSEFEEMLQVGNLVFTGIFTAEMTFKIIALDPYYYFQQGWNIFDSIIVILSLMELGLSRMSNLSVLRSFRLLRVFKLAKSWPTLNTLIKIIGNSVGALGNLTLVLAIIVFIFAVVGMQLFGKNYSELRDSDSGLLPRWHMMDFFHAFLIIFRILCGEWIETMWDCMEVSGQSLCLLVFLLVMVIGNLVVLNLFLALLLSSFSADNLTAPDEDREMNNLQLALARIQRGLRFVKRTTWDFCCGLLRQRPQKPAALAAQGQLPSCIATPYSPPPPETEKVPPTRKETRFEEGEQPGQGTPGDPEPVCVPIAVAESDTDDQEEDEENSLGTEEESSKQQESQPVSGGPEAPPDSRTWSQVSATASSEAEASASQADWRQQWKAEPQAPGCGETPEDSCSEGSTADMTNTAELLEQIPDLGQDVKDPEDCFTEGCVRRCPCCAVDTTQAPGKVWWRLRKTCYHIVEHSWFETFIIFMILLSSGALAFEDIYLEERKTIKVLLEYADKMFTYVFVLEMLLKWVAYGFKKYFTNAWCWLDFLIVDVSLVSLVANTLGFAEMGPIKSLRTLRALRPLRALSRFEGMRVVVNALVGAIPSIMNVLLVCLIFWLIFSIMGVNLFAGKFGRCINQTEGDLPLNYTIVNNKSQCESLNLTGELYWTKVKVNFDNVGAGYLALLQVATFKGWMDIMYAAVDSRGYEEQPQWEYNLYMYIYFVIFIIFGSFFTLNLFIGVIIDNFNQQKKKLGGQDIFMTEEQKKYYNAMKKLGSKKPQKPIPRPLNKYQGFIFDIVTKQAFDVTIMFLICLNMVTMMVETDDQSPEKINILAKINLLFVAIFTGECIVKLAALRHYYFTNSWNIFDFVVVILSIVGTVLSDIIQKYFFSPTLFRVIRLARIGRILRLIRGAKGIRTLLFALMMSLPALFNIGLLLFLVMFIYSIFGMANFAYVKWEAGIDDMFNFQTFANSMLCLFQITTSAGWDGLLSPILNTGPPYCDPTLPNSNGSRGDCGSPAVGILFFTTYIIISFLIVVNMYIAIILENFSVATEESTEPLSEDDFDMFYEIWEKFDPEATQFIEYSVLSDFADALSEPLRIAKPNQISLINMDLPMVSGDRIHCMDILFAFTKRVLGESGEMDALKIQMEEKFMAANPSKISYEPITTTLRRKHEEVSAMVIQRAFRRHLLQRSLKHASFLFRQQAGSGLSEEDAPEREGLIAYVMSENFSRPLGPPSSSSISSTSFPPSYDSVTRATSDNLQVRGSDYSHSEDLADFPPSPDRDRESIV
experimentalProtocol: Late INa screening assay (QPatch whole cell patch clamp, HEK293)
Format: cell-based
experimentalConditions: HEK293, percent block of late INa; compound at 1 μM; 10 μM Tefluthrin; read-out: Late INa 1 μM
measurementKind: inhibition at 1 µM (%)
A number alone suffices; assume %.

Recorded results for 2 compounds are shown here.
{"compound": "O=C1c2cc(-c3ccc(C(F)(F)F)s3)ccc2OCCN1Cc1ncccn1 [VI-37]", "measurementKind": "inhibition at 1 µM", "unitsSymbol": "%", "resultNumber": 48}
{"compound": "O=C1c2cc(-c3ccc(F)c(F)c3F)ccc2OCCN1Cc1ncccn1 [II-162]", "measurementKind": "inhibition at 1 µM", "unitsSymbol": "%", "resultNumber": 20}

Prompt: Dear colleague, I am looking for the recorded inhibition at 1 µM of the following compound: O=C1c2cc(-c3ccc(Cl)cc3F)ccc2OCCN1Cc1ncccn1 [II-117]
Response: 37
